# test: LM-1 macrophage cytotoxicity (Alamar Blue)
# Format: cell-based, murine
# condition label: mouse; LM-1 macrophages, 24 h, Alamar Blue; read-out: CC50
Where a SMILES comes first, the peptide text is derived from it. [ ]: non-standard residue; d: D form. The star is where a group is joined. NMeF = CN[C@@H](Cc1ccccc1)C(=O)O; NMeV = CN[C@H](C(=O)O)C(C)C; Hept6ynoyl = C#CCCCCC(=O)*; NMeA = CN[C@@H](C)C(=O)O; NH(CH2)6NH2 = NCCCCCCN*
assay readout: CC50 at 24 h (µM)
Please state the figure in µM; there is no need to write the unit.

Note to self: CC50 at 24 h recorded for C#CCCCCC(=O)N(C)[C@H](C(=O)N(C)[C@H](C(=O)N(C)[C@H](C(=O)N(C)[C@@H](C)C(=O)N(C)[C@@H](Cc1ccccc1)C(=O)O)C(C)C)C(C)C)C(C)C [peptide 12] (Hept6ynoyl-[NMeV][NMeV][NMeV][NMeA][NMeF]-OH) was 281

The molecule listed as C#CCCCCC(=O)N(C)[C@H](C(=O)N(C)[C@H](C(=O)N(C)[C@H](C(=O)N(C)[C@@H](C)C(=O)N(C)[C@@H](Cc1ccccc1)C(=O)NCCCCCCN)C(C)C)C(C)C)C(C)C [peptide 17] (Hept6ynoyl-[NMeV][NMeV][NMeV][NMeA][NMeF]-{NH(CH2)6NH2}) shows CC50 at 24 h equal to 338

CC50 at 24 h reading for C#CCCCCC(=O)N(C)[C@H](C(=O)N(C)[C@H]1CCN([C@H](C(=O)N(C)[C@@H](C)C(=O)N(C)[C@@H](Cc2ccccc2)C(=O)O)C(C)C)C1=O)C(C)C [peptide 27] : 295
